Values from paper PMC3199943

Reported viability at 500 µM values for the following molecules.
# Test system: A549 cells
# Assay protocol: Cytotoxicity against A549 cells, Alamar Blue
# Assay type: cell-based
# Condition details: Homo sapiens, A549, 65 h; Supplementary Table 1; compound 0.5 mM; percentage of controls (n=1)
# Method: Cytotoxic effects against HeLa and A549 cells were determined in a similar manner. Briefly, the cells were cultured in DMEM supplemented with 10% FCS and 2 mM L-Glutamine. Cells were plated at initial cell concentration of 2 × 10^4 cells/well and incubated with the compounds for ~65 hours prior to addition of Alamar Blue solution for a further 5 hours.
Return type: number; implicit unit %.

Asked: Fill in the blank: the reported viability at 500 µM of Nc1ccccc1N1CCCC1 [compound 289, 2‐pyrrolidin‐1‐ylaniline] is ____.
Given back: 23.8

***
Asked: Need viability at 500 µM, item CNCc1ccc(OC)cc1 [compound 199, N‐(4‐methoxybenzyl)‐N‐methylamine]
Given back: 71

Asked: Suppose we examine the molecule CC(C)(C)c1ccc(N)cc1 [compound 178, 4‐(tert‐butyl)aniline] ; what viability at 500 µM value has been reported?
Given back: 87.6

Asked: Given OC1CCSCC1 [compound 47, tetrahydro‐2H‐thiopyran‐4‐ol] , state its recorded viability at 500 µM.
Given back: 74.9

Asked: Recorded viability at 500 µM for CCOC(=O)CCc1ccc(O)cc1 [compound 585, ethyl 3‐(4‐hydroxyphenyl)propanoate] , please?
Given back: 61.7

---

# Test system: A549 cells
# Assay protocol: Cytotoxicity against A549 cells, Alamar Blue
# Assay type: cell-based
# Condition details: Homo sapiens, A549, 65 h, Supplementary Table 1; compound 0.5 mM; percentage of controls (n=1)
Counter-ions that a name gives are not always drawn.
Attribute measured: viability at 500 µM (%)
All answers are understood in %, so give the number only.

The examples below pair each entry with its known result.
Asked: Quick one: viability at 500 µM of `O=C(O)c1ccc(-c2cccnc2)cc1` ?
Given back: 74.2

Asked: Could you tell me which viability at 500 µM is on file for `Oc1ccc(F)cc1` ?
Given back: 88.4

Asked: Entry under review: `Nc1nc(-c2ccc(O)cc2)cs1` . Reported viability at 500 µM?
Given back: 61.6

---
Asked: Would you mind telling me what viability at 500 µM value was observed for `CNCc1ccccc1-c1cccs1` ?
Given back: 66.9

Asked: Please report the recorded viability at 500 µM for `O=C(O)c1ccc2cc[nH]c2c1` .
Given back: 75.6

Asked: Return reported viability at 500 µM; argument: Oc1noc2ccccc12 [compound 112, benzo[d]isoxazol‐3‐ol]
Given back: 76.7

Asked: Give its viability at 500 µM value. Item: `Cc1ccccc1NC(N)=S`
Given back: 125

Asked: # input compound: `Cc1cc(N)no1` ; wanted: its viability at 500 µM
Given back: 112

Asked: What measured viability at 500 µM goes with `O=C(O)c1ccccc1F` ?
Given back: 126

Asked: Fill in: viability at 500 µM of `O=C(O)c1ccc2ccccc2n1` is ___
Given back: 152

Asked: What does the data say about its viability at 500 µM? Entry: `Nc1ncccc1OCc1ccccc1`
Given back: 82.7

Asked: Need viability at 500 µM, item Nc1cccc(N)c1 [compound 461, benzene‐1,3‐diamine dihydrochloride]
Given back: 91.8

Asked: # lookup: viability at 500 µM of O=C(O)C1CCCNC1 (stereo not shown)
Given back: 103

Asked: Reported viability at 500 µM for `NCc1nc2ccccc2s1` : what is it?
Given back: 85.7

Asked: Look up viability at 500 µM for this compound: COC(=O)C1NCCS1 (stereo not shown)
Given back: 87

Asked: # viability at 500 µM lookup, item `Oc1ccc(Oc2ccccc2)cc1`
Given back: 53.1
